meta.source: PubChem BioAssay (NCI)

- Test system: M14 melanoma
- protocol.description: NCI tumour cell line growth inhibition, 48 h
Listed next: entries and their corresponding TGI.

Observe how each entry below is paired with its result.
- compound: "CC(O)C1OC(n2ccc(=O)[nH]c2=O)CC1n1cncn1 (stereo unspecified)"
  TGI: "> 100 µM"
- compound: "CC1(C)CC[C@]2(CO)CC[C@]3(C)C(=CC[C@@H]4[C@@]5(C)CCNCC(C)(C)[C@@H]5CC[C@]43C)[C@@H]2C1"
  TGI: "4.14 µM"
- compound: "C[Si](C)(C)/C=C/CN1C(=O)CCC1=O"
  TGI: "> 100 µM"

-- ask Fill blank: measured TGI of the compound Cc1cnc2[nH]c(-c3ccc(Cl)cc3)cc(=O)c2c1 is ____.
-- reply > 100 µM

-- ask Fill blank: measured TGI of the compound CCN(CC)CCCC(C)Nc1ccnc(/C=C/c2ccc(Cl)cc2)c1 (stereo unspecified) is ____.
-- reply 2.74 µM

-- ask Fill blank: measured TGI of the compound c1cc2c3ccsc3c3sccc3c2s1 is ____.
-- reply > 100 µM

-- ask Fill blank: measured TGI of the compound CC1(C)CCC[C@@]2(C)C1CC[C@@]1(CO1)[C@@H]2/C=C\C(C=O)CC=O (stereo partly specified) is ____.
-- reply > 100 µM

-- ask Fill blank: measured TGI of the compound Cc1cc(C)c(C(=O)C(C)C(c2ccccc2)c2ccc(Cl)cc2)c(C)c1 (stereo unspecified) is ____.
-- reply > 100 µM

-- ask Fill blank: measured TGI of the compound Cc1ccc2c(c1)C(O)(c1ccccc1)CCS2 (stereo unspecified) is ____.
-- reply 66.9 µM

-- ask Fill blank: measured TGI of the compound COc1cccc(/C=C/C(=O)N2CC(CCl)c3c2cc(N)c2ccccc32)c1 (stereo unspecified) is ____.
-- reply 0.105 µM

-- ask Fill blank: measured TGI of the compound CC[P+]1(c2ccccc2)CCCCC1 is ____.
-- reply > 100 µM

###

- System: SF-268 CNS
- protocol.description: NCI tumour cell line growth inhibition, 48 h
Listed next: entries and their corresponding GI50.

Observe how each entry below is paired with its result.
- compound: "CC[Si](CC)(CC)OC1[C@@H](O[Si](CC)(CC)CC)[C@@H](CNC(=O)NC)O[C@H]1n1cnc2c(NC(=O)Nc3ccccc3)ncnc21 (stereo not given in full)"
  GI50: "4.67 µM"
- compound: "NC(=O)c1ncn2c(=O)n(CCCl)nnc12"
  GI50: "10.7 µM"
- compound: "CCOP(=O)(OCC)C(NC(c1ccccc1)c1ccccc1)c1ccc(C(C)C)cc1 (stereo not given)"
  GI50: "7.93 µM"
- compound: "COc1ccc2nc3ccccc3c(NCc3ccccc3)c2c1"
  GI50: "2.94 µM"

-- ask Field: GI50 (SF-268 CNS). Entry: CC1(C)CC[C@]2(CO)CC[C@]3(C)C(=CC[C@@H]4[C@@]5(C)CCNCC(C)(C)[C@@H]5CC[C@]43C)[C@@H]2C1
-- reply 8.98 µM

###

Listed next: entries and their corresponding TGI.
- Tested on: SK-MEL-28 melanoma
- protocol.description: NCI tumour cell line growth inhibition, 48 h

- compound: "CCOc1nc2sc3c(c2c(=O)n1CCSSCCn1c(OCC)nc2sc4c(c2c1=O)CCCC4)CCCC3"
  endpoint.label: "TGI"
  result: "> 100 µM"
- compound: "CCOC(=O)c1ccn2c(c1)c(C#N)c1nc3ccccc3nc12"
  endpoint.label: "TGI"
  result: "> 100 µM"
- compound: "CCN(CC)CCCC(C)Nc1ccnc(/C=C/c2ccc(Cl)cc2)c1 (stereo not drawn)"
  endpoint.label: "TGI"
  result: "3.41 µM"
- compound: "C/C(=C\\CC/C=C(\\C)CC/C=C(\\C)CCC1SC1(C)C)CC/C=C(\\C)CCC1OC1(C)C (stereo not drawn)"
  endpoint.label: "TGI"
  result: "> 100 µM"
- compound: "C/C=C(\\C)C(=O)O[C@@H]1C=CC(=O)O[C@H]1CNC(=O)[C@H](C)O"
  endpoint.label: "TGI"
  result: "35.8 µM"
- compound: "C=C1C(O)C2CC(C)(C)C(=O)C2=C(CC(C)C)C12CC2 (stereo not drawn)"
  endpoint.label: "TGI"
  result: "> 100 µM"
- compound: "N#CC(C#N)=Cn1c(=S)[nH]c2ccc([N+](=O)[O-])cc21"
  endpoint.label: "TGI"
  result: "> 100 µM"

From here, focus on the item given below.
-- ask Fill blank: measured TGI of the compound CCC(C(=O)[C@@H](C)[C@@H](O)[C@H](C)[C@@H]1O[C@@H]([C@@H](CC)C(=O)ONC(=O)c2ccccc2)CC[C@@H]1C)[C@H]1O[C@]2(C=CC(=O)[C@]3(CC[C@@](C)([C@H]4CC[C@](O)(CC)[C@H](C)O4)O3)O2)[C@H](C)C[C@@H]1C (stereo partly drawn) is ____.
-- reply 8.57 µM
